systemTested: GST-Dm-Relish (Drosophila melanogaster, UniProt Q94527 99-473)
Sequence: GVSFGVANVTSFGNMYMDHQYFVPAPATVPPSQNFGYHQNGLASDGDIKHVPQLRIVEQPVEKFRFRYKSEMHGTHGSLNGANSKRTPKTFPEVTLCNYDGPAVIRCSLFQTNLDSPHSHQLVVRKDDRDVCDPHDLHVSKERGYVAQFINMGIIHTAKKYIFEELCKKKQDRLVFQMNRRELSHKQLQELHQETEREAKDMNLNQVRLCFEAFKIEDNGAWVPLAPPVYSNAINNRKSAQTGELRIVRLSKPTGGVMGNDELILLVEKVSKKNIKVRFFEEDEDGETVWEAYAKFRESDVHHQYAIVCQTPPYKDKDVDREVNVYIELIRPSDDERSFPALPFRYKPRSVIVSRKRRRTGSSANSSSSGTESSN
measurementDescription: protein-binding microarray (PBM); PBM: ~300 nM protein, 6 mM HEPES pH 7.8, 80 mM KCl, 0.5 mM EDTA, 0.5 mM EGTA, 6% glycerol, 35 ng/ul poly-dIdC, 1% milk, 1 h, room temperature; high values mean tight binding
details: dsDNA, one strand shown
Mark each entry criterion met if its binding signal sits below 5 z-score, and criterion not met for all others.

CCGATTAACATCACTTTACCCCCTGATGTTAATCGGGTCTTGATTCGCTTGACGCTGCTG criterion met
CCGATTAACATCAGATCTCCCCCTGATGTTAATCGGGTCTTGATTCGCTTGACGCTGCTG criterion met
CCGATTAACATCAAAAAATACCATGATGTTAATCGGGTCTTGATTCGCTTGACGCTGCTG criterion met
CCGATTAACATCAAAATAGTCCCTGATGTTAATCGGGTCTTGATTCGCTTGACGCTGCTG criterion met
CCGATTAACATCAGGGAGATTTGTGATGTTAATCGGGTCTTGATTCGCTTGACGCTGCTG criterion met
CCGATTAACATCAGGAATTACCATGATGTTAATCGGGTCTTGATTCGCTTGACGCTGCTG criterion met
CCGATTAACATCAGGGCCCCCCCTGATGTTAATCGGGTCTTGATTCGCTTGACGCTGCTG criterion not met
CCGATTAACATCAAAATTCCAGGTGATGTTAATCGGGTCTTGATTCGCTTGACGCTGCTG criterion met
CCGATTAACATCAGGGGAATAAATGATGTTAATCGGGTCTTGATTCGCTTGACGCTGCTG criterion not met

###

Measured binding signal of individual entries
systemTested: GST-Dm-Relish (Drosophila melanogaster, UniProt Q94527 99-473)
Sequence: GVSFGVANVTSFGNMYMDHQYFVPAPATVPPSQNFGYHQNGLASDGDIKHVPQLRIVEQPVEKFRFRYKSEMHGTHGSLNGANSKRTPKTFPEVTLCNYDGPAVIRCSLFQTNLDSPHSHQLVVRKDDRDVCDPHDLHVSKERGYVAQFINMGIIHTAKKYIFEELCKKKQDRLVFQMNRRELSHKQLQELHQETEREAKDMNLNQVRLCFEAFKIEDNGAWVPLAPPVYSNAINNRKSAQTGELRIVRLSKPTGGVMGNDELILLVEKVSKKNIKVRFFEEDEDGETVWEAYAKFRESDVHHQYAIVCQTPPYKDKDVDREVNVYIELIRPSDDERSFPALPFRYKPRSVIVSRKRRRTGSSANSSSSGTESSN
measurementDescription: protein-binding microarray (PBM); PBM: ~300 nM protein, 6 mM HEPES pH 7.8, 80 mM KCl, 0.5 mM EDTA, 0.5 mM EGTA, 6% glycerol, 35 ng/ul poly-dIdC, 1% milk, 1 h, room temperature; high values mean tight binding
details: dsDNA, one strand shown
recordedMetric: binding signal (z-score)

CCGATTAACATCAGGGAGTCCCCTGATGTTAATCGGGTCTTGATTCGCTTGACGCTGCTG 10.7
CCGATTAACATCAGAAAATTCCCTGATGTTAATCGGGTCTTGATTCGCTTGACGCTGCTG 7.55
CCGATTAACATCAAAATTTCCACTGATGTTAATCGGGTCTTGATTCGCTTGACGCTGCTG 1.61
CCGATTAACATCAGGGGAAAACCTGATGTTAATCGGGTCTTGATTCGCTTGACGCTGCTG 8.9
CCGATTAACATCAAGGGGGTACCTGATGTTAATCGGGTCTTGATTCGCTTGACGCTGCTG 3.15
CCGATTAACATCAATGGGTTTTCTGATGTTAATCGGGTCTTGATTCGCTTGACGCTGCTG 2.88
CCGATTAACATCAGGAAATTTACTGATGTTAATCGGGTCTTGATTCGCTTGACGCTGCTG 1.36
CCGATTAACATCATAATTCCCAATGATGTTAATCGGGTCTTGATTCGCTTGACGCTGCTG 2.22
CCGATTAACATCAGGGGGTGCACTGATGTTAATCGGGTCTTGATTCGCTTGACGCTGCTG 6.6

###

systemTested: GST-Dm-Relish (Drosophila melanogaster, UniProt Q94527 99-473)
Sequence: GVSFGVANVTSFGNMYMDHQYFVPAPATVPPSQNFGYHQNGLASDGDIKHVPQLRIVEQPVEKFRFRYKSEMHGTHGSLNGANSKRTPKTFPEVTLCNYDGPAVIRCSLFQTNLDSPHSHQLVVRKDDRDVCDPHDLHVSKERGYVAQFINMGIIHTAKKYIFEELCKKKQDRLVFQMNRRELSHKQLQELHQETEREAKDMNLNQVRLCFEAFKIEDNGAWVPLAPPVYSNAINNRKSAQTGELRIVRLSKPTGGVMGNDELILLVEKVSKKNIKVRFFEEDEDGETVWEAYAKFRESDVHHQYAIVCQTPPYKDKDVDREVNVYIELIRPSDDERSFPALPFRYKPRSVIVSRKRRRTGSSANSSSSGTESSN
measurementDescription: protein-binding microarray (PBM); PBM: ~300 nM protein, 6 mM HEPES pH 7.8, 80 mM KCl, 0.5 mM EDTA, 0.5 mM EGTA, 6% glycerol, 35 ng/ul poly-dIdC, 1% milk, 1 h, room temperature; high values mean tight binding
details: dsDNA, one strand shown
recordedMetric: binding signal (z-score)

CCGATTAACATCAGATTTTCCCATGATGTTAATCGGGTCTTGATTCGCTTGACGCTGCTG 1.26
CCGATTAACATCACGAGATTCCCTGATGTTAATCGGGTCTTGATTCGCTTGACGCTGCTG 1.75
CCGATTAACATCACATATTCCCCTGATGTTAATCGGGTCTTGATTCGCTTGACGCTGCTG 4.55
CCGATTAACATCACTTAGTACGGTGATGTTAATCGGGTCTTGATTCGCTTGACGCTGCTG 1.1
CCGATTAACATCAAGGGAACTCCTGATGTTAATCGGGTCTTGATTCGCTTGACGCTGCTG 5.67
CCGATTAACATCACGGGTTTTTCTGATGTTAATCGGGTCTTGATTCGCTTGACGCTGCTG 5.07
CCGATTAACATCACGGTATTTCCTGATGTTAATCGGGTCTTGATTCGCTTGACGCTGCTG 3.77
CCGATTAACATCAGAAATCCCGCTGATGTTAATCGGGTCTTGATTCGCTTGACGCTGCTG 4.94
CCGATTAACATCAATCCCCCCCATGATGTTAATCGGGTCTTGATTCGCTTGACGCTGCTG 5.46

###

systemTested: GST-Ap-NF-kB RHD (Exaiptasia pallida (Aiptasia), UniProt A0A913YAJ5 2-422)
Sequence: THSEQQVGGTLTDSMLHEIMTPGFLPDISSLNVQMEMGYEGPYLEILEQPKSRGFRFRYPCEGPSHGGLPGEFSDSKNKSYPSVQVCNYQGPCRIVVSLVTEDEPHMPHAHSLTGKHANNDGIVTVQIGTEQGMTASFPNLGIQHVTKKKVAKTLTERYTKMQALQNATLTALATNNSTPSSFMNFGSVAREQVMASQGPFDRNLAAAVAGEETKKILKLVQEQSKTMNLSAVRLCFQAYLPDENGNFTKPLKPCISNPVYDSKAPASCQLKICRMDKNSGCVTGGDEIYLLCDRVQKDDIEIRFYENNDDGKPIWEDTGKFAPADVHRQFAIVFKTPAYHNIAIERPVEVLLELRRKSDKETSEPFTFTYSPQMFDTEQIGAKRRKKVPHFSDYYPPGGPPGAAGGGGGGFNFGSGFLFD
measurementDescription: protein-binding microarray (PBM); PBM: ~300 nM protein, 6 mM HEPES pH 7.8, 80 mM KCl, 0.5 mM EDTA, 0.5 mM EGTA, 6% glycerol, 35 ng/ul poly-dIdC, 1% milk, 1 h, room temperature; Ap Aiptasia and Nv Nematostella (sea anemones) / Co Capsaspora / Aq Amphimedon (sponge) / Dm Drosophila / Hu human; RHD is the Rel homology domain; high values mean tight binding
details: dsDNA, one strand shown
Measured binding signal of individual entries
recordedMetric: binding signal (z-score)

CCGATTAACATCAAAAGCCCCCTTGATGTTAATCGGGTCTTGATTCGCTTGACGCTGCTG 6.3
CCGATTAACATCAGGGGATTTGATGATGTTAATCGGGTCTTGATTCGCTTGACGCTGCTG 6.34
CCGATTAACATCAGGGACGCCCCTGATGTTAATCGGGTCTTGATTCGCTTGACGCTGCTG 6.59
CCGATTAACATCAAAATTTTCCCTGATGTTAATCGGGTCTTGATTCGCTTGACGCTGCTG 5.5
CCGATTAACATCAGGGGGGGATATGATGTTAATCGGGTCTTGATTCGCTTGACGCTGCTG 6.21
CCGATTAACATCAGGGATTTTACTGATGTTAATCGGGTCTTGATTCGCTTGACGCTGCTG 3.97
CCGATTAACATCAGGAGCTCCCCTGATGTTAATCGGGTCTTGATTCGCTTGACGCTGCTG 4.8
CCGATTAACATCAAAACCCCCCTTGATGTTAATCGGGTCTTGATTCGCTTGACGCTGCTG 8.76
CCGATTAACATCAGGGAGCCCCCTGATGTTAATCGGGTCTTGATTCGCTTGACGCTGCTG 8.32
